Measured values drawn from ChEMBL document CHEMBL1772999 for this set.

System: Bel-7402
procedure_summary: Antiproliferative activity against human Bel7402 cells after 72 hrs by sulforhodamine B assay
Type: functional, cell-based
measurement_setup: Bel-7402, 72 h
Give IC50 for every item shown.

Please review the following examples before continuing.
smiles_record=Nc1ncc(-c2ccc(CN3CCOCC3)cc2)c(-c2ccccc2O)n1 measurement="> 10000 nM"
smiles_record=COc1cc2c(c(OC)c1OC)-c1ccc(OC)c(=O)cc1[C@@H](NC(C)=O)CC2 measurement="40 nM"
smiles_record=CCn1ccc2cc(-c3cnc(N)nc3-c3cc(OC)c(OC)cc3O)ccc21 measurement="> 10000 nM"
smiles_record=CCn1ccc2cc(-c3cnc(N)nc3-c3cc(OC)ccc3O)ccc21 measurement="> 10000 nM"
smiles_record=CN1CCN(Cc2ccc(-c3cnc(N)nc3-c3ccccc3O)cc2)CC1 measurement="> 10000 nM"

Batch request: IC50 per item, same order as input.
1. CC(C)n1ccc2cc(-c3cnc(N)nc3-c3ccccc3O)ccc21
2. CCN(CC)c1ccc(-c2cnc(N)nc2-c2ccccc2O)cc1
3. Nc1ncc(-c2ccc(N3CCCC3)cc2)c(-c2ccccc2O)n1
4. CCn1ccc2cc(-c3cnc(N)nc3-c3cc(F)ccc3O)ccc21
5. Nc1ncc(-c2ccc(N3CCOCC3)cc2)c(-c2ccccc2O)n1
6. CCn1ccc2c(-c3cnc(N)nc3-c3ccccc3O)cccc21
7. Nc1ncc(-c2ccc(N3CCCCC3)cc2)c(-c2ccccc2O)n1

["80 nM", "100 nM", "> 10000 nM", "10 nM", "> 10000 nM", "1000 nM", "> 10000 nM"]

* * *

Give IC50 for every item shown.
target_or_system: Tubulin (Sus scrofa, UniProt P02554+P02550)
procedure_summary: Inhibition of pig brain tubulin polymerization by spectrophotometry

Please review the following examples before continuing.
smiles_record=Nc1ncc(-c2ccc(CN3CCCCC3)cc2)c(-c2ccccc2O)n1 assay_endpoint=IC50 measurement="> 50 µM"
smiles_record=CCn1ccc2ccc(-c3cnc(N)nc3-c3ccccc3O)cc21 assay_endpoint=IC50 measurement="> 50 µM"
smiles_record=CCN(CC)c1ccc(-c2cnc(N)nc2-c2ccccc2O)cc1 assay_endpoint=IC50 measurement="5.57 µM"

Batch request: IC50 per item, same order as input.
1. CCn1ccc2cc(-c3cnc(N)nc3-c3cc(OC)ccc3O)ccc21
2. CCn1ccc2cc(-c3cnc(N)nc3-c3ccccc3O)ccc21

> 50 µM
0.79 µM

* * *

target_or_system: Tubulin (Sus scrofa, UniProt P02554+P02550)
procedure_summary: Inhibition of pig brain tubulin polymerization by spectrophotometry
Give IC50 for every item shown.

smiles_record=CCn1ccc2c(-c3cnc(N)nc3-c3ccccc3O)cccc21 measurement="> 50 µM"
smiles_record=CCn1ccc2cc(-c3cnc(N)nc3-c3ccc(OC)c(OC)c3O)ccc21 measurement="> 50 µM"
smiles_record=CCN(C)c1ccc(-c2cnc(N)nc2-c2ccccc2O)cc1 measurement="2.35 µM"
smiles_record=CN1CCN(c2ccc(-c3cnc(N)nc3-c3ccccc3O)cc2)CC1 measurement="> 50 µM"

API: the following record is the query input.
Entry `CCn1ccc2cc(-c3cnc(N)nc3-c3ccc(OC)cc3O)ccc21` has what IC50?
> 50 µM

* * *

Give IC50 for every item shown.
Test system: Bel-7402
procedure_summary: Antiproliferative activity against human Bel7402 cells after 72 hrs by sulforhodamine B assay
Type: functional, cell-based
measurement_setup: Bel-7402, 72 h

Please review the following examples before continuing.
smiles_record=CCn1ccc2cc(-c3cnc(N)nc3-c3ccccc3O)ccc21 measurement="0.016 µM"
smiles_record=Nc1ncc(-c2ccc3[nH]ccc3c2)c(-c2ccccc2O)n1 measurement="> 10 µM"
smiles_record=Cn1ccc2cc(-c3cnc(N)nc3-c3ccccc3O)ccc21 measurement="0.05 µM"

Batch request: IC50 per item, same order as input.
1. CCn1ccc2cc(-c3cnc(N)nc3-c3ccc(OC)c(OC)c3O)ccc21
2. CN1CCN(c2ccc(-c3cnc(N)nc3-c3ccccc3O)cc2)CC1
3. CCn1ccc2cc(-c3cnc(N)nc3-c3ccc(OC)cc3O)ccc21
4. CCn1ccc2cc(-c3cnc(N)nc3-c3ccccc3O)cnc21
5. Nc1ncc(-c2ccc(CN3CCCCC3)cc2)c(-c2ccccc2O)n1
6. CN(C)Cc1ccc(-c2cnc(N)nc2-c2ccccc2O)cc1

["> 10 µM", "> 10 µM", "> 10 µM", "1 µM", "> 10 µM", "> 10 µM"]

Entry `CCn1ccc2ccc(-c3cnc(N)nc3-c3ccccc3O)cc21` has what IC50?
> 10 µM
